# experiment_notes: chemical genetic growth profiling, strain panel (AID 1159580);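 also: tested at 20 µM; growth read once vehicle control cultures reached saturation at 30 °C; 1 = growth at the plate median or of vehicle wells; lower values mean less growth of the strain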
# measurement_conditions: S. cerevisiae deletion strains, growth OD, locus YHR027C, strain rpn1, hits give low values
The whole screen tested about 5,500 compounds, of which about 2,000 (36%) were called active. Roughly 18% stayed inconclusive and do not appear here. The list shows a part of the results.
Entries and their measured normalized growth follow.
# answer = number (no unit)

The following compounds have reported results that may help.
CCN1CCN(c2cc3c(cc2F)c(=O)c(C(=O)O)cn3C2CC2)CC1 | 1.02
COc1ccc(-c2coc3cc(OC(C)=O)cc(OC(C)=O)c3c2=O)cc1 | 0.951
CC1=CCc2c(cc3oc(C)cc(=O)c3c2O)OC1 | 0.984
COCCOC(=O)C1=C(C)NC(C)=C(C(=O)OC(C)C)C1c1cccc([N+](=O)[O-])c1 (stereo not drawn) | 1.01
CC(=O)[C@H]1CCC2C3CC=C4C[C@@H](O)CC[C@]4(C)C3CC[C@@]21C (stereo partly drawn) | 0.961

# input Any idea what normalized growth was measured for `Nc1ccc(C(=O)Oc2ccccc2)c(O)c1` ?
# output 0.945

# input For the compound C=CCc1ccccc1OCC(O)CNC(C)C (stereo not drawn) , what normalized growth is on record?
# output 1

# input For `NCCc1ccc(O)c(O)c1` , what is its reported normalized growth?
# output 1

# input GET /values?readout=normalized growth&item= CC(C)(O)[C@@H]1CC[C@](C)([C@H]2[C@@H](O)C[C@@]3(C)C4C[C@H](O[C@@H]5O[C@H](CO)[C@@H](O)[C@H](O)[C@H]5O)C5C(C)(C)[C@@H](O[C@@H]6OC[C@@H](O)[C@H](O)[C@H]6O)CC[C@@]56C[C@@]46CC[C@]23C)O1 (stereo partly drawn)
# output 0.998

# input Look up normalized growth: CC(=O)CC(c1ccccc1)c1c(O)c2ccccc2oc1=O (stereo not drawn)
# output 0.994

----------
# experiment_notes: chemical genetic growth profiling, strain panel (AID 1159580);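 also: tested at 20 µM; growth read once vehicle control cultures reached saturation at 30 °C; 1 = growth at the plate median or of vehicle wells; lower values mean less growth of the strain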
# measurement_conditions: S. cerevisiae deletion strains, growth OD, locus YLL001W, strain dnm1
In all, about 5,500 compounds went through this assay and about 2,000 (36%) were called active. About 18% were inconclusive and are not listed. Cut-off read from the data, not from the text of the source: active = normalized growth mostly below about 0.91 (no sharp cut-off); inconclusive = no clear call, values can overlap the other calls; inactive = mostly above about 0.92. The list shows a part of the results.
# valid calls are active, inactive; nothing else

CC(=O)Oc1cc(-c2coc3cc(OC(C)=O)c(OC(C)=O)c(OC(C)=O)c3c2=O)cc(OC(C)=O)c1OC(C)=O | inactive
CC(C)c1ccc2c(c1O)CC[C@H]1C3=C(CC[C@]21C)C(=O)OC3 | inactive

# input How was `O=C1CN2Cc3c(ccc(Cl)c3Cl)N=C2N1` classified in this test?
# output inactive

# input Check the results log: what was the call for `COc1ccc(-c2cc(=O)c3c(O)c(OC)c(OC)c(OC)c3o2)cc1` ?
# output inactive

# input What classification did CN(C)C(=O)Oc1cc(OC(=O)N(C)C)cc(C(O)CNC(C)(C)C)c1 (stereo not given) end up with in this test?
# output inactive

# input Outcome logged for `COc1ccc(-c2cc(=O)c3cc(OC)ccc3o2)cc1` in this assay:
# output inactive

# input What was the test verdict on CCC(CCC(C)[C@H]1CCC2C3CC=C4C[C@@H](O)CC[C@]4(C)C3CC[C@@]21C)C(C)C (stereo not given in full) ?
# output inactive

# input Status in this test for `COc1cccc2c1cc([N+](=O)[O-])c1c(C(=O)O)cc3c(c12)OCO3` ?
# output inactive

# input What was the test verdict on CC(C)(C)C(=O)C(Oc1ccc(Cl)cc1)n1cncn1 (stereo not given) ?
# output active
